Data credit: ChEMBL document CHEMBL1134280

# systemUnderTest: M-phase inducer phosphatase 2 (Homo sapiens)
# Sequence (P30305 whole entry): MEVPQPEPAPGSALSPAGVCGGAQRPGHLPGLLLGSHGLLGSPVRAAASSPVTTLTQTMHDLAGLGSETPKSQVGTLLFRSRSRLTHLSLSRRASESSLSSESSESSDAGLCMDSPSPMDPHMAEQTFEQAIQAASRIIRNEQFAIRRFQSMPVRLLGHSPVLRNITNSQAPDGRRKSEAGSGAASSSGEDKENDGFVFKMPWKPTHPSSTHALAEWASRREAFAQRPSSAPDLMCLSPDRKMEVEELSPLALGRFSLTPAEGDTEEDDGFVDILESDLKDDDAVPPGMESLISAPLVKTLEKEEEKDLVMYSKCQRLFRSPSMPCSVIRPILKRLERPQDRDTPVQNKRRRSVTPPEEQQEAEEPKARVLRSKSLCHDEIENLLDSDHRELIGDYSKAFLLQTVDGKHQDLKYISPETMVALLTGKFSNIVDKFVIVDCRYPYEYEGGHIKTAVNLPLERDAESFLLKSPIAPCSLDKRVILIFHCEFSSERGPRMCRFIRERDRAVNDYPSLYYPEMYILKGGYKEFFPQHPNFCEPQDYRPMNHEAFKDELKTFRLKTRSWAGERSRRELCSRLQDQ
# assayComment: Inhibitory activity against recombinant human cell division cycle 25B
quantityName: IC50 (µM)
Give bare numbers, in µM.

Examples with answers:
CCCCCCOc1ccc(NC2=C(Cl)C(=O)c3cccnc3C2=O)cc1	0.93
CC(/N=C1\C=C(O)c2cccnc2C1=O)C(O)c1ccccc1 (stereo unspecified)	0.51
CC(/N=C1\C=C(O)c2ncccc2C1=O)C(O)c1ccccc1 (stereo unspecified)	0.67
O=C1C=CC(=O)c2ncccc21	3
O=C1C(Cl)=C(Cl)C(=O)c2ncncc21	4.8

Lab note: next compound to report on.
Query: State the recorded IC50 for this entry: O=C1C(Cl)=C(NC2CCc3ccccc32)C(=O)c2ncccc21 (stereo unspecified)
Result: 0.3
